Tested on: cool season plant species
Experiment: B2 Post-emergence efficacy Test 2, cool season plant species
Type: in vivo
Conditions: BRSNN, 60 g/Ha, 15 days after application, 0=no damage, 100=total kill
Experimental: Seeds of a variety of test species (see Table B1) were sown in standard soil in pots. […] Herbicidal activity was evaluated 15 days after application on a 0-100 scale. […]
recordedMetric: Herbicidal activity (0-100 scale) BRSNN

* Cc1nn(C)c(=O)c(-c2c(F)ccc(Cl)c2CCc2ccc(Cl)cc2)c1OC(=O)C(C)C | 90
* Cc1nn(C)c(=O)c(-c2c(F)ccc(Cl)c2CCc2ccccc2C(F)(F)F)c1O | 90
* Cc1nn(C)c(=O)c(-c2c(F)ccc(Cl)c2CCc2ccc(C#N)cc2)c1O | 90
* Cc1nn(C)c(=O)c(-c2c(F)ccc(Cl)c2CCc2ccc(F)cc2)c1O | 90
* Cc1nn(C)c(=O)c(-c2c(F)ccc(Cl)c2CCc2ccc(F)cc2)c1OC(=O)C(C)C | 80

###

Tested on: cool season plant species
Assay: B2 Post-emergence efficacy Test 2, cool season plant species
Type: in vivo
Details: HORVW, 125 g/Ha, 15 days after application, 0=no damage, 100=total kill
Experimental: Seeds of a variety of test species (see Table B1) were sown in standard soil in pots. […] Herbicidal activity was evaluated 15 days after application on a 0-100 scale. […]
recordedMetric: Herbicidal activity (0-100 scale) HORVW

• Cc1nn(C)c(=O)c(-c2c(F)ccc(Cl)c2CCc2ccccc2C(F)(F)F)c1O = 70
• Cc1nn(C)c(=O)c(-c2c(F)ccc(Cl)c2CCc2ccc(Cl)cc2)c1OC(=O)C(C)C = 20
• Cc1nn(C)c(=O)c(-c2c(F)ccc(Cl)c2CCc2ccc(C#N)cc2)c1O = 10
• Cc1nn(C)c(=O)c(-c2c(F)ccc(Cl)c2CCc2ccc(F)cc2)c1O = 40
• Cc1nn(C)c(=O)c(-c2c(F)ccc(Cl)c2CCc2ccc(F)cc2)c1OC(=O)C(C)C = 10

###

Catalogue of compounds with associated Herbicidal activity, BIDPI
test system: warm season plant species; test: B2 Post-emergence efficacy Test 2, warm season plant species; type: in vivo; conditions: Bidens pilosa, 500 g/Ha, 15 days after application, 0-100 scale, 0=no damage, 100=total kill
recordedMetric: Herbicidal activity, BIDPI

* Cc1nn(C)c(=O)c(-c2c(F)ccc(Cl)c2CCc2ccc(F)cc2)c1O | 100
* Cc1nn(C)c(=O)c(-c2c(F)ccc(Cl)c2CCc2ccc(F)cc2)c1OC(=O)C(C)C | 100
* Cc1nn(C)c(=O)c(-c2c(F)ccc(Cl)c2CCc2ccccc2C(F)(F)F)c1O | 90
* Cc1nn(C)c(=O)c(-c2c(F)ccc(Cl)c2CCc2ccc(C#N)cc2)c1O | 90
* Cc1nn(C)c(=O)c(-c2c(F)ccc(Cl)c2CCc2ccc(Cl)cc2)c1OC(=O)C(C)C | 100

###

Recorded measurements of Herbicidal activity (0-100 scale) GALAP, one per entry
system: cool season plant species; test: B2 Post-emergence efficacy Test 2, cool season plant species; type: in vivo; conditions: GALAP, 30 g/Ha, 15 days after application, 0=no damage, 100=total kill
recordedMetric: Herbicidal activity (0-100 scale) GALAP

* Cc1nn(C)c(=O)c(-c2c(F)ccc(Cl)c2CCc2ccc(C#N)cc2)c1O | 20
* Cc1nn(C)c(=O)c(-c2c(F)ccc(Cl)c2CCc2ccc(F)cc2)c1OC(=O)C(C)C | 20
* Cc1nn(C)c(=O)c(-c2c(F)ccc(Cl)c2CCc2ccccc2C(F)(F)F)c1O | 20
* Cc1nn(C)c(=O)c(-c2c(F)ccc(Cl)c2CCc2ccc(F)cc2)c1O | 30
* Cc1nn(C)c(=O)c(-c2c(F)ccc(Cl)c2CCc2ccc(Cl)cc2)c1OC(=O)C(C)C | 20
